System: amytal sleeping time
Assay: Potentialization of sleeping time (amytal)
Type: in vivo, mice (female)
Details: 5 mg/Kg i.p., 1 h before 80 mg/kg amytal i.v.
Rule: average sleeping time below 40 min gives Met, anything at or above gives Not met.

Please review the following examples before continuing.
>>> class_label("CCN1C2Cc3ccccc3C1c1ccccc12 (stereo not drawn)")
"Not met"
>>> class_label("NCCN1C2Cc3ccccc3C1c1ccccc12 (stereo not drawn)")
"Not met"
>>> class_label("CC(=O)CN1C2Cc3ccccc3C1c1ccccc12 (stereo not drawn)")
"Met"
>>> class_label("C#CCN1C2Cc3ccccc3C1c1ccccc12 (stereo not drawn)")
"Not met"
>>> class_label("C=CCN1C2Cc3ccccc3C1c1ccccc12 (stereo not drawn)")
"Not met"

Prompt: Lab note: average sleeping time threshold 40 min. Does this compound come in strictly under it? CN1C2Cc3ccccc3C1c1ccc(Cl)cc12 (stereo not drawn)
Response: Met

Prompt: Lab note: average sleeping time threshold 40 min. Does this compound come in strictly under it? ClCCN1C2Cc3ccccc3C1c1ccccc12 (stereo not drawn)
Response: Not met

Prompt: Lab note: average sleeping time threshold 40 min. Does this compound come in strictly under it? CCCN1C2Cc3ccccc3C1c1ccccc12 (stereo not drawn)
Response: Not met

Prompt: Lab note: average sleeping time threshold 40 min. Does this compound come in strictly under it? CN1C2Cc3ccccc3C1c1ccccc12 (stereo not drawn)
Response: Not met

====

Test system: pentamethylenetetrazol convulsions
Experiment: Anticonvulsant effect (pentamethylenetetrazol perfusion)
Assay type: in vivo, mice (female)
Settings: 5 mg/Kg i.p., 1 h before perfusion
Rule: Dose of pentamethylenetetrazol, Myoclonia below 50 mg/kg gives rule met, anything at or above gives rule not met.

Prompt: Lab note: Dose of pentamethylenetetrazol, Myoclonia threshold 50 mg/kg. Does this molecule come in strictly under it? C=CCN1C2Cc3ccccc3C1c1ccccc12 (centres unmarked) [Example 19]
Response: rule met

Prompt: Lab note: Dose of pentamethylenetetrazol, Myoclonia threshold 50 mg/kg. Does this molecule come in strictly under it? CC(=O)CN1C2Cc3ccccc3C1c1ccccc12 (centres unmarked) [Example 7]
Response: rule not met

Prompt: Lab note: Dose of pentamethylenetetrazol, Myoclonia threshold 50 mg/kg. Does this molecule come in strictly under it? CN1C2Cc3ccccc3C1c1ccc(Cl)cc12 (centres unmarked) [Example 26]
Response: rule met

Prompt: Lab note: Dose of pentamethylenetetrazol, Myoclonia threshold 50 mg/kg. Does this molecule come in strictly under it? C#CCN1C2Cc3ccccc3C1c1ccccc12 (centres unmarked) [Example 20]
Response: rule met

====

Could you please report measured LD50 at 168 h for the items listed next?
Assay: Acute toxicity
Details: mouse, in vivo, ip, Swiss mice, observed for a week
Answers are plain numbers, in mg/kg.

Study these solved cases before continuing.
>>> value("CCOC(=O)N1C2Cc3ccccc3C1c1ccccc12 (centres unmarked)")
1000
>>> value("c1ccc2c(c1)CC1NC2c2ccccc21 (centres unmarked)")
150
>>> value("CP(C)(=O)CN1C2Cc3ccccc3C1c1ccccc12 (centres unmarked)")
350

Below are 6 molecules. Give each one its LD50 at 168 h.
1. OCCN1C2Cc3ccccc3C1c1ccccc12 (centres unmarked)
2. NC(=O)N1C2Cc3ccccc3C1c1ccccc12 (centres unmarked)
3. C=CCN1C2Cc3ccccc3C1c1ccccc12 (centres unmarked)
4. CN(C)CC(=O)N1C2Cc3ccccc3C1c1ccccc12 (centres unmarked)
5. CN1C2Cc3ccccc3C1c1ccccc12 (centres unmarked)
6. CC(=O)CN1C2Cc3ccccc3C1c1ccccc12 (centres unmarked)

Response:
350
1000
350
150
175
350
